GI50 values by entry
- System: CAKI-1
- TEST: NCI tumour cell line growth inhibition, 48 h
Activity calls are given as the source filed them. Cut-off read from the data, not from the text of the source: active = GI50 up to about 1.1 µM and inactive = higher.
PARAMETER_MEASURED: GI50

>  <MOLECULE>
CC(C)C(OC(=O)c1ccc(NCC2=CC(=O)C=CC2=O)cc1)C(C)C

>  <TESTED_ON>
CAKI-1

>  <PARAMETER_MEASURED>
GI50

>  <RESULT>
1.4 µM (inactive)

$$$$
>  <MOLECULE>
N#C/C(C(=S)Nc1ccccc1)=C(/N)N1CCCC1

>  <TESTED_ON>
CAKI-1

>  <PARAMETER_MEASURED>
GI50

>  <RESULT>
27.9 µM (inactive)

$$$$
>  <MOLECULE>
O=C(N/C=C1\C(=O)Oc2ccccc2C1=O)Nc1ccccc1

>  <TESTED_ON>
CAKI-1

>  <PARAMETER_MEASURED>
GI50

>  <RESULT>
15.1 µM (inactive)

$$$$
>  <MOLECULE>
N#Cc1c2ccc([N+](=O)[O-])cc2c(=O)n2c1sc1ccc(C(F)(F)F)cc12

>  <TESTED_ON>
CAKI-1

>  <PARAMETER_MEASURED>
GI50

>  <RESULT>
> 100 µM (inactive)

$$$$
>  <MOLECULE>
Nc1ncnc2c1ccn2C/C=C/CO

>  <TESTED_ON>
CAKI-1

>  <PARAMETER_MEASURED>
GI50

>  <RESULT>
> 100 µM (inactive)

$$$$
>  <MOLECULE>
O=C1CCc2c(sc3ncnc(Nc4cccc(Br)c4)c23)C1

>  <TESTED_ON>
CAKI-1

>  <PARAMETER_MEASURED>
GI50

>  <RESULT>
2.09 µM (inactive)

$$$$
>  <MOLECULE>
Cn1ncc2c(Cl)ncnc21

>  <TESTED_ON>
CAKI-1

>  <PARAMETER_MEASURED>
GI50

>  <RESULT>
> 100 µM (inactive)

$$$$
>  <MOLECULE>
CCOC(=O)C12CCCC1(O)N(NC(N)=O)C(C)=C2C(=O)OC (configuration not stated)

>  <TESTED_ON>
CAKI-1

>  <PARAMETER_MEASURED>
GI50

>  <RESULT>
> 100 µM (inactive)

$$$$
>  <MOLECULE>
CC[N+](C)(CC)CCN1C(=O)c2ccccc2S1(=O)=O

>  <TESTED_ON>
CAKI-1

>  <PARAMETER_MEASURED>
GI50

>  <RESULT>
> 100 µM (inactive)

$$$$
>  <MOLECULE>
C[n+]1c2ccccc2n2c3ccccc3c(NCCCN3CCOCC3)c(C#N)c21

>  <TESTED_ON>
CAKI-1

>  <PARAMETER_MEASURED>
GI50

>  <RESULT>
2.45 µM (inactive)

$$$$
>  <MOLECULE>
COc1cccc(/C=C/C2=NN(c3cccc(S(=O)(=O)O)c3)C3(C2)SCC(=O)N3c2nc3ccccc3s2)c1 (configuration not stated)

>  <TESTED_ON>
CAKI-1

>  <PARAMETER_MEASURED>
GI50

>  <RESULT>
50.9 µM (inactive)

$$$$
>  <MOLECULE>
Cc1cc2c(c(/C=N/c3ccc(N(C)C)cc3)c1)OC1(C=C2)Oc2ccccc2C(=O)N1C (configuration not stated)

>  <TESTED_ON>
CAKI-1

>  <PARAMETER_MEASURED>
GI50

>  <RESULT>
14.6 µM (inactive)

$$$$
>  <MOLECULE>
Cc1nc(SCC(=O)Nc2ccc(Cl)cc2)c2sc(=S)n(-c3ccccc3)c2n1

>  <TESTED_ON>
CAKI-1

>  <PARAMETER_MEASURED>
GI50

>  <RESULT>
> 10 µM (inactive)

$$$$
>  <MOLECULE>
CCOC(=O)C(C(=O)OCC)=C1SC(=N\c2ccccc2)/C(=N/c2ccccc2)N1c1ccccc1

>  <TESTED_ON>
CAKI-1

>  <PARAMETER_MEASURED>
GI50

>  <RESULT>
> 100 µM (inactive)

$$$$
>  <MOLECULE>
C=CC(C)(C)C1(CC(OC)OC)C(=O)N(C)c2ccccc21 (configuration not stated)

>  <TESTED_ON>
CAKI-1

>  <PARAMETER_MEASURED>
GI50

>  <RESULT>
> 25 µM (inactive)

$$$$
>  <MOLECULE>
COc1ccc(-c2[nH]c(=O)n(C3OC(CO)C(O)C(O)C3O)c(=O)c2C#N)cc1 (configuration not stated)

>  <TESTED_ON>
CAKI-1

>  <PARAMETER_MEASURED>
GI50

>  <RESULT>
> 100 µM (inactive)

$$$$
>  <MOLECULE>
c1ccc2c3c([nH]c2c1)C1C2CCCCN2C(c2ccncc2)N1CC3 (configuration not stated)

>  <TESTED_ON>
CAKI-1

>  <PARAMETER_MEASURED>
GI50

>  <RESULT>
34.4 µM (inactive)

$$$$
>  <MOLECULE>
OC(CC(O)(C(F)(F)F)C(F)(F)F)c1ccc(C(O)CC(O)(C(F)(F)F)C(F)(F)F)cc1 (configuration not stated)

>  <TESTED_ON>
CAKI-1

>  <PARAMETER_MEASURED>
GI50

>  <RESULT>
12.7 µM (inactive)

$$$$
>  <MOLECULE>
CCNc1c(C(=O)N(CC)CC)c(=O)[nH]c2ncccc12

>  <TESTED_ON>
CAKI-1

>  <PARAMETER_MEASURED>
GI50

>  <RESULT>
> 100 µM (inactive)

$$$$
>  <MOLECULE>
Cn1c(=S)c2nc(SCCN3CCCC3)[nH]c2n(C)c1=O

>  <TESTED_ON>
CAKI-1

>  <PARAMETER_MEASURED>
GI50

>  <RESULT>
> 100 µM (inactive)

$$$$
>  <MOLECULE>
O=C1NC(O)CCN1C1OC(CO)C(O)C1O (configuration not stated)

>  <TESTED_ON>
CAKI-1

>  <PARAMETER_MEASURED>
GI50

>  <RESULT>
> 250 µM (inactive)

$$$$
>  <MOLECULE>
COC(=O)c1ccc(C=C(C#N)C#N)cc1

>  <TESTED_ON>
CAKI-1

>  <PARAMETER_MEASURED>
GI50

>  <RESULT>
30.7 µM (inactive)

$$$$

Every entry's value here was drawn from ChEMBL document CHEMBL1201862.
